Data provenance is ChEMBL document CHEMBL4130494.

- Experimental protocol: Solubility in pH 7.4 Hanks simulated body fluid after overnight incubation by nephelometry
- Assay type: physicochemical
Measured attribute: solubility kinetic (µM)
State just the number; it will be interpreted in µM.

// query Report solubility kinetic for "COc1cccc2c1C(=O)c1oc3c(c1C2=O)c(=O)oc1ccccc13" please.
// result 35

// query And "CC(=O)Oc1cccc2c1C(=O)c1oc3c(c1C2=O)c(=O)oc1ccccc13" ?
// result 35

// query Queued: "COc1cccc2c1C(=O)c1c(oc3c1c(=O)oc1ccccc13)C2=O"
// result 35

// query Field entry: "O=C1c2ccccc2C(=O)c2c1oc1c2c(=O)oc2ccccc21"
// result 70

// query And the next one, "CC(=O)Oc1cccc2c1C(=O)c1c(oc3c1c(=O)oc1ccccc13)C2=O" ?
// result 35

// query Entry to check: "O=C1c2cc3ccccc3cc2C(=O)c2c1oc1c2c(=O)oc2ccccc21"
// result 70

// query Same again, this time with "O=C1c2oc3c(c2C(=O)c2cccc(O)c21)c(=O)oc1ccccc13"
// result 70

// query Also check "Nc1ccc2oc(=O)c3c4c(oc3c2c1)C(=O)c1c(O)cccc1C4=O"
// result 35

// query Now this one: "O=C1c2cccc(O)c2C(=O)c2c1oc1c2c(=O)oc2ccccc21"
// result 35
